Give proliferation rate relative to baseline / untreated control for every item shown.
# Test system: HMEC-1 cells
# Method Notes: Wound healing (scratch) assay, HMEC-1
# Type: cell-based, human
# Test Conditions: HMEC-1, 100 µM, 24 h

For reference, reported proliferation rate relative to baseline / untreated control for CCOC(=O)c1ccc(O)cc1 [EtP, ethylparaben] stands at 20–30%

For reference, reported proliferation rate relative to baseline / untreated control for COC(=O)c1cc(Br)c(O)c(Br)c1 [DBMeP, methyl 3,5-dibromo-4-hydroxybenzoate] stands at 20–30%

For reference, reported proliferation rate relative to baseline / untreated control for COC(=O)c1ccc(O)c(Cl)c1 [CMeP, methyl 3‑chloro-4-hydroxybenzoate] stands at 20–30%

For reference, reported proliferation rate relative to baseline / untreated control for COC(=O)c1cc(Cl)c(O)c(Cl)c1 [DCMeP, methyl 3,5-dichloro-4-hydroxybenzoate] stands at 20–30%

For reference, reported proliferation rate relative to baseline / untreated control for COC(=O)c1ccc(O)cc1 [MeP, Methyl 4-hydroxybenzoate] stands at 160%

----------
# Tested on: HEK001 cells (human epidermal keratinocytes)
# Method Notes: MTT cytotoxicity assay, HEK001 keratinocytes
# Type: cell-based
# Test Conditions: HEK001, 100 µM; proliferation could not be observed
Observable: cytotoxic response at high concentration

The cases that follow already have their cytotoxic response at high concentration on record.
Compound	Measured Target	cytotoxic response at high concentration
COC(=O)c1ccc(O)c(Cl)c1 [CMeP, methyl 3‑chloro-4-hydroxybenzoate]	HEK001 cells (human epidermal keratinocytes)	significant cell death
O=C(OCc1ccccc1)c1ccc(O)cc1	HEK001 cells (human epidermal keratinocytes)	acutely lethal responses
CCCOC(=O)c1ccc(O)cc1	HEK001 cells (human epidermal keratinocytes)	acutely lethal responses
COC(=O)c1cc(Cl)c(O)c(Cl)c1 [DCMeP, methyl 3,5-dichloro-4-hydroxybenzoate]	HEK001 cells (human epidermal keratinocytes)	significant cell death

Alright, here's another compound for you.
For reference, reported cytotoxic response at high concentration for `CCCCOC(=O)c1ccc(O)cc1` stands at acutely lethal responses

----------
# Method Notes: MTT cytotoxicity assay, HMEC-1 endothelial cells
# Assay type: cell-based
# Test Conditions: human, HMEC-1 dermal microvascular endothelial cells; 24 h exposure, MTT, HMEC-1 endothelial cells; average ± standard deviation; read-out: EC50 from cytotoxicity assay, HMEC-1
Give log10 of EC50 at 24 h for every item shown.
Short version: log10 scale, EC50 at 24 h, µM.

For reference, reported log10 of EC50 at 24 h for COC(=O)c1ccc(O)c(Cl)c1 [CMeP, methyl 3‑chloro-4-hydroxybenzoate] stands at 2.90

For reference, reported log10 of EC50 at 24 h for `O=C(OCc1ccccc1)c1ccc(O)cc1` stands at 1.41

For reference, reported log10 of EC50 at 24 h for `CCCOC(=O)c1ccc(O)cc1` stands at 2.01

For reference, reported log10 of EC50 at 24 h for `CCOC(=O)c1ccc(O)cc1` stands at 2.23

For reference, reported log10 of EC50 at 24 h for `CCCCOC(=O)c1ccc(O)cc1` stands at 1.88

For reference, reported log10 of EC50 at 24 h for COC(=O)c1cc(Br)c(O)c(Br)c1 [DBMeP, methyl 3,5-dibromo-4-hydroxybenzoate] stands at 2.69
